Tested on: Nilaparvata lugens
Experiment Summary: Nilaparvata lugens killing activity test
Assay type: in vivo
Condition Notes: 144 h, active ingredient 500 ppm, dipped paddy, second instar larvae, after 6 days, 25° C., read-out: insect mortality
Value Type: mortality at 500 ppm

Ask: Quick one: give measured mortality at 500 ppm for Cc1ccccc1-c1cn(-c2ccc[n+]([O-])c2)nc1C(N)=O [A-8862]
Result: ≥ 50%

Ask: Quick one: give measured mortality at 500 ppm for COCC(=O)NC(=O)c1nn(-c2cccnc2)cc1-c1ccccc1C [A-4808]
Result: ≥ 50%

Ask: Quick one: give measured mortality at 500 ppm for CCOC(=O)c1nn(-c2cccnc2)cc1-c1ccccc1C(F)(F)F [C-0044]
Result: ≥ 50%
